From: patent US5627193A

# test system: NHE (Na^+ /H^+ exchanger) (Rattus norvegicus)
# Construct: A rat mesenteric artery was isolated; from tissue; host or cells: isolated rat mesenteric artery segments
# experimental details: NHE inhibitory activity (recovery of the pH in cells after acid load, BCECF, rat mesenteric artery)
# Type: cell-based
# setup conditions: Conc. 1 μM, read-out: Percent NHE inhibition (%)
# Experimental: The NHE inhibitory activity was measured by the following method using a pH in cells as an index. A rat mesenteric artery was isolated, and was loaded with a pH-sensitive dye BCECF. […] The pH in cells was measured in terms of a ratio of fluorescent intensities through 2-wavelength excitation of 495 nm (pH-sensitive wavelength)/450 nm (pH-non-sensitive wavelength). […]
Label scheme, based on inhibition at 1 µM: lower segment (below 40%), middle segment (40% to below 60%), upper segment (60% or more)

smiles input: Cc1ccc(-c2cc(C(=O)N=C(N)N)c3ccccc3n2)c(C)c1
class assignment: middle segment

Category of COCCOc1cccc2c(C(=O)N=C(N)N)cc(-c3ccccc3)nc12 :
upper segment

Determine which band this molecule sits in: COc1cc(OC)c2c(C(=O)N=C(N)N)cc(-c3ccccc3)nc2c1
upper segment

Using the reported inhibition at 1 µM, which band applies to Cc1cc(Cl)cc2c(C(=O)N=C(N)N)cc(-c3ccccc3)nc12 ?
lower segment

Lab note: sort Cc1cc(C)c(-c2cc(C(=O)N=C(N)N)c3ccccc3n2)c(C)c1 into the matching inhibition at 1 µM band.
lower segment

Pick a category. Item: COc1ccc2c(C(=O)N=C(N)N)cc(-c3ccccc3C)nc2c1OC
lower segment

For Cc1ccccc1-c1cc(C(=O)N=C(N)N)c2ccc(O)cc2n1 , which inhibition at 1 µM bin applies?
middle segment

Field: class (inhibition at 1 µM) — entry: COc1ccc(OC)c2c(C(=O)N=C(N)N)cc(-c3ccccc3C)nc12
upper segment

###

# test system: NHE (Na^+ /H^+ exchanger) (Rattus norvegicus)
# Construct: A rat mesenteric artery was isolated; from tissue; host or cells: isolated rat mesenteric artery segments
# experimental details: NHE inhibitory activity (recovery of the pH in cells after acid load, BCECF, rat mesenteric artery)
# Format: cell-based
# setup conditions: Conc. 0.1 μM, read-out: Percent NHE inhibition (%)
Give Met when the value for inhibition at 0.1 µM is at least 30%. Give Not met when it is less.

Below, 3 molecules whose answers are already recorded.
smiles input: Cc1ccc(-c2cc(C(=O)N=C(N)N)c3ccccc3n2)cc1C
class assignment: Met
//
smiles input: COc1cc(OC)c2c(C(=O)N=C(N)N)cc(-c3ccccc3C)nc2c1
class assignment: Met
//
smiles input: NC(N)=NC(=O)c1cc(-c2cccc(N)c2)nc2ccccc12
class assignment: Met

In plain terms: is recorded inhibition at 0.1 µM at least 30% for CC(=O)Nc1cccc2c(C(=O)N=C(N)N)cc(-c3ccccc3)nc12 ?
Not met

Is the recorded value of inhibition at 0.1 µM equal to or greater than 30% for this molecule? COc1cc(OC)c2nc(-c3ccccc3)cc(C(=O)N=C(N)N)c2c1
Not met

Can Cc1cccc2c(C(=O)N=C(N)N)cc(-c3ccccc3)nc12 be said to have inhibition at 0.1 µM at or above 30%?
Not met

Identify whether the reported inhibition at 0.1 µM of the following molecule is 30% or greater: NC(N)=NC(=O)c1cc(-c2cccc([N+](=O)[O-])c2)nc2ccccc12
Not met

Does the reported inhibition at 0.1 µM for COc1cc2nc(-c3ccccc3C)cc(C(=O)N=C(N)N)c2cc1OC fall at or above the 30% mark?
Not met

I'd appreciate it if you could say whether Cc1cc(Cl)cc2c(C(=O)N=C(N)N)cc(-c3ccccc3)nc12 has inhibition at 0.1 µM at least equal to 30%.
Not met

###

# test system: NHE (Na^+ /H^+ exchanger) (Rattus norvegicus, UniProt P26431)
# Construct: A rat mesenteric artery was isolated; from tissue; host or cells: isolated rat mesenteric artery segments
# Sequence (P26431 whole entry): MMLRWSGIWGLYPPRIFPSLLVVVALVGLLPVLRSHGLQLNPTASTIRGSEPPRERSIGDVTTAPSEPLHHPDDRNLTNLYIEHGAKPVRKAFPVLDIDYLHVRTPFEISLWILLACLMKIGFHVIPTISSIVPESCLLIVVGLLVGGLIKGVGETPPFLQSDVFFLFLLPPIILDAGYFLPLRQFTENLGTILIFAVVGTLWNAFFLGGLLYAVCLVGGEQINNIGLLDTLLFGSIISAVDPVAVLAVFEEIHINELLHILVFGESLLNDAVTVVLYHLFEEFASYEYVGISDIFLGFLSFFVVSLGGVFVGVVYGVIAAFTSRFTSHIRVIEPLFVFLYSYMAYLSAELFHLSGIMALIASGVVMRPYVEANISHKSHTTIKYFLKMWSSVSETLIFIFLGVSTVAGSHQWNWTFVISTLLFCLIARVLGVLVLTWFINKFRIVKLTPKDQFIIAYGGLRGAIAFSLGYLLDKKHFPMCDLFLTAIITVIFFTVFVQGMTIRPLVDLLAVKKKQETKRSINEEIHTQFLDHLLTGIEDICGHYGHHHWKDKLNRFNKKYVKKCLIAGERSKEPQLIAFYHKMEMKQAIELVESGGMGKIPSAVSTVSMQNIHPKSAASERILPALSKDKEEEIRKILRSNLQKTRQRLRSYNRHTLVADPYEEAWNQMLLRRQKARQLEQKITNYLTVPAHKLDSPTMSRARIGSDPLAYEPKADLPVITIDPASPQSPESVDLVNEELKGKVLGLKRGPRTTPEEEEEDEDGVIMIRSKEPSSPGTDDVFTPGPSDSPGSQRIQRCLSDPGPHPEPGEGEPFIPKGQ
# Sequence (P61023 2-195 partner limits assumed): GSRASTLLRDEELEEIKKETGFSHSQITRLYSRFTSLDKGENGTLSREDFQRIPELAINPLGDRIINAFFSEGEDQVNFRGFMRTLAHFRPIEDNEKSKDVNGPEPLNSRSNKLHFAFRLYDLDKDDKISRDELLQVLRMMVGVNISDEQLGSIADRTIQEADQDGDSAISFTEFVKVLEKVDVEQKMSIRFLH
# experimental details: NHE inhibitory activity (recovery of the pH in cells after acid load, BCECF, rat mesenteric artery)
# Format: cell-based
# setup conditions: Conc. 0.1 μM, read-out: Percent NHE inhibition (%)
// reported inhibition at 0.1 µM per item
Numeric only. Scale: %

Answered examples (5):
smiles input: Cc1ccccc1-c1cc(C(=O)N=C(N)N)c2ccc(O)cc2n1
reported value: 39.3
--
smiles input: Cc1ccc(-c2cc(C(=O)N=C(N)N)c3ccccc3n2)c(C)c1
reported value: 36.4
--
smiles input: Cc1c(-c2ccccc2)nc2ccccc2c1C(=O)N=C(N)N
reported value: 1.5
--
smiles input: Cc1ccc(-c2cc(C(=O)N=C(N)N)c3ccccc3n2)cc1
reported value: 10.6
--
smiles input: COCOc1ccc2c(C(=O)N=C(N)N)cc(-c3ccccc3C)nc2c1
reported value: 35

Return reported inhibition at 0.1 µM; argument: COCCOc1cccc2c(C(=O)N=C(N)N)cc(-c3ccccc3)nc12
28.4

Fill blank: measured inhibition at 0.1 µM of the compound Cc1ccc2nc(-c3ccccc3)cc(C(=O)N=C(N)N)c2c1 is ____.
28.9

For the compound NC(N)=NC(=O)c1cc(-c2ccccc2Cl)nc2ccccc12 , what inhibition at 0.1 µM is on record?
28.8

Data request, read-out inhibition at 0.1 µM, for NC(N)=NC(=O)c1cc(-c2ccccc2)nc2c(Cl)cccc12
12

Query: inhibition at 0.1 µM; subject: NC(N)=NC(=O)c1cc(-c2ccccc2)nc2cccc(Cl)c12
33.7

I would be grateful if you could share the reported inhibition at 0.1 µM for COc1ccc2c(C(=O)N=C(N)N)cc(-c3ccccc3C)nc2c1OC .
28

###

# test system: NHE (Na^+ /H^+ exchanger) (Rattus norvegicus, UniProt P26431)
# Construct: A rat mesenteric artery was isolated; from tissue; host or cells: isolated rat mesenteric artery segments
# experimental details: NHE inhibitory activity (recovery of the pH in cells after acid load, BCECF, rat mesenteric artery)
# Type: cell-based
# setup conditions: Conc. 1 μM, read-out: Percent NHE inhibition (%)
measured endpoint: inhibition at 1 µM (%)
Please reply with the bare figure in % and do not write the unit itself.

molecule: NC(N)=NC(=O)c1cc(-c2ccccc2)nc2cccc(Cl)c12 [Example 28]
test system: NHE (Na^+ /H^+ exchanger) (Rattus norvegicus, UniProt P26431)
measured endpoint: inhibition at 1 µM
reported value: 63.3

Reported inhibition at 1 µM, molecule Cc1cccc(-c2cc(C(=O)N=C(N)N)c3ccccc3n2)c1 [Example 3] : ____
59.8

Given NC(N)=NC(=O)c1cc(-c2ccccc2)nc2ccc(Cl)cc12 [Example 29] , state its recorded inhibition at 1 µM.
38.6

What does the data say about its inhibition at 1 µM? Entry: COc1ccc2c(C(=O)N=C(N)N)cc(-c3ccccc3)nc2c1 [Example 34]
53

// query inhibition at 1 µM value for entry NC(N)=NC(=O)c1cc(-c2cccc([N+](=O)[O-])c2)nc2ccccc12 [Example 19]
35.6

Endpoint output: inhibition at 1 µM of COc1cc(OC)c2nc(-c3ccccc3)cc(C(=O)N=C(N)N)c2c1 [Example 40] . Value?
31

// lookup inhibition at 1 µM for Cc1cccc2c(C(=O)N=C(N)N)cc(-c3ccccc3)nc12 [Example 24]
50

Suppose we examine the molecule NC(N)=NC(=O)c1cc(-c2ccccc2)nc2c(N)cccc12 [Example 48] ; what inhibition at 1 µM value has been reported?
41.7

Quick one: inhibition at 1 µM for NC(N)=NC(=O)c1cc(-c2ccccc2C(F)(F)F)nc2ccccc12 [Example 11] ?
46.1

Which value of inhibition at 1 µM has been reported for Cc1ccc2nc(-c3ccccc3)cc(C(=O)N=C(N)N)c2c1 [Example 22] in the records?
57.9

###

# experimental details: Toxicity test, mortality of mice after 24 hours
# setup conditions: mouse, in vivo, iv, 100 mg/kg (i.v.), 3 mice
measured endpoint: mortality at 24 h
Answer format: number, then unit.

# query: mortality at 24 h of entry COc1ccc(OC)c2c(C(=O)N=C(N)N)cc(-c3ccccc3C)nc12 [Example 42]
0%

###

# test system: NHE (Na^+ /H^+ exchanger) (Rattus norvegicus, UniProt P26431)
# Construct: A rat mesenteric artery was isolated; from tissue; host or cells: isolated rat mesenteric artery segments
# experimental details: NHE inhibitory activity (recovery of the pH in cells after acid load, BCECF, rat mesenteric artery)
# Assay type: cell-based
# setup conditions: Conc. 1 μM, read-out: Percent NHE inhibition (%)
inhibition at 1 µM below 50% gives Not satisfied; inhibition at 1 µM at or above it gives Satisfied.

compound: COc1cc(OC)c2c(C(=O)N=C(N)N)cc(-c3ccccc3C)nc2c1 [Example 37]
test system: NHE (Na^+ /H^+ exchanger) (Rattus norvegicus, UniProt P26431)
class assignment: Satisfied

Confirm if inhibition at 1 µM reported for the compound CS(=O)(=O)Nc1cccc2c(C(=O)N=C(N)N)cc(-c3ccccc3)nc12 [Example 50] is 50% or above.
Satisfied

Decide: is the reported value of inhibition at 1 µM for NC(N)=NC(=O)c1cc(-c2ccccc2)nc2ccccc12 [Example 1, 2-phenylquinoline-4-carbonylguanidine] equal to or greater than 50%?
Satisfied

Decide: inhibition at 1 µM of COc1cc2nc(-c3ccccc3C)cc(C(=O)N=C(N)N)c2cc1OC [Example 39] >= 50%?
Not satisfied

Is it the case that Cc1c(-c2ccccc2)nc2ccccc2c1C(=O)N=C(N)N [Example 21] has inhibition at 1 µM reaching or exceeding 50%?
Not satisfied

# bool: inhibition at 1 µM of COc1cccc2c(C(=O)N=C(N)N)cc(-c3ccccc3)nc12 [Example 35] >= 50%
Satisfied

Tell me whether inhibition at 1 µM is at least 50% here: Cc1ccccc1-c1cc(C(=O)N=C(N)N)c2ccccc2n1 [Example 4]
Satisfied
